Known CLH of a selection of compounds
test system: Liver microsome; test: Intrinsic clearance in rat liver microsomes; format: ADME

Please review the entries below; each comes with its answer.
c1ccc(COc2ccc3c(c2)CCN(C2CCC2)CC3)cc1 : > 50 mL/min/g
c1ccc(COc2ccc3c(c2)CCN(C2CCCC2)CC3)cc1 : > 50 mL/min/g

Kindly consider the entry below.
Enquiry: Dear colleague, please send me the reported CLH for `c1ccc(COc2ccc3c(c2)CCN(CC2CC2)CC3)cc1` when you can.
Return: > 50 mL/min/g

----------
target: Histamine H3 receptor (Homo sapiens); assay: Antagonist activity at human histamine H3 receptor expressed in CHOK1 cells assessed as inhibition of GTPgammaS binding by scintillation proximity assay
Sequence (Q9Y5N1 whole entry): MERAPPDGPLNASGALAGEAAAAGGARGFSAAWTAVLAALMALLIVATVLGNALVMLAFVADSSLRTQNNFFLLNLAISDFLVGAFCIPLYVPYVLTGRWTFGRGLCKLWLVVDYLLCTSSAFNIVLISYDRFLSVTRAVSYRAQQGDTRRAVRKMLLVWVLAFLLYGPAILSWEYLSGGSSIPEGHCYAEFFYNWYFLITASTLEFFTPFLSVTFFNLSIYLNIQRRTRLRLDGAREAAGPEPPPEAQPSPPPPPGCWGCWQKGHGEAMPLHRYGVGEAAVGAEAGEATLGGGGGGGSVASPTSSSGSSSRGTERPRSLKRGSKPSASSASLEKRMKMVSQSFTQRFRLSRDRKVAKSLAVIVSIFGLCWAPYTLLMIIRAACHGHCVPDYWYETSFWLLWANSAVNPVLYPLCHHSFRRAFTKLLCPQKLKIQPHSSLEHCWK
pKi: −log10 of the molar value.
Consider the following compounds and their measured pKi readings.

Previously resolved entries follow.
FC1(F)CCN(CCCOc2ccc3c(c2)CCNCC3)CC1 : < 6.40
c1ccc(COc2ccc3c(c2)CCNCC3)cc1 : < 5.00
c1ccc(COc2ccc3c(c2)CCN(Cc2ccccc2)CC3)cc1 : < 6.00

Enquiry: Supply reported pKi belonging to this compound: `OC1CCN(CCCOc2ccc3c(c2)CCNCC3)CC1`
Return: < 5.00
